target_or_system: CK1ϵ (Homo sapiens (Human), UniProt P49674)
Sequence (P49674 whole entry): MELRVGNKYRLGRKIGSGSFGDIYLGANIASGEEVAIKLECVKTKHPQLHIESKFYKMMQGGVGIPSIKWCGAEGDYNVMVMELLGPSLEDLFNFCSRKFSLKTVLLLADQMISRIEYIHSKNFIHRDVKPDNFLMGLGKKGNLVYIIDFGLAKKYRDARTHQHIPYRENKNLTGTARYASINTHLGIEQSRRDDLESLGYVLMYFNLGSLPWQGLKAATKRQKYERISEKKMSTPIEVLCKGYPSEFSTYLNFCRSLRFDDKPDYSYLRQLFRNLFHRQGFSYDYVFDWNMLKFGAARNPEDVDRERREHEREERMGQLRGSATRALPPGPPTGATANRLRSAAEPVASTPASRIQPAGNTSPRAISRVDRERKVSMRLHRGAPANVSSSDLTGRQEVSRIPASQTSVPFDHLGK
assay_explanation: LanthaScreen Eu kinase binding assay, CK1ϵ
experimental_parameters: read-out: IC50 Ck1ε
pIC50: −log10 of the molar value.

- compound: "Fc1ccc(-c2nc(-c3ccc4ccccc4c3F)[nH]c2-c2ccncc2)cc1 [IM-29]"
  pIC50: 7.80

----------
target_or_system: CK1ϵ (Homo sapiens (Human))
assay_explanation: LanthaScreen Eu kinase binding assay, CK1ϵ
inhibition at 1 µM reference

- compound: "Cc1cccc(-c2nc[nH]c2-c2ccncc2)c1 [IM-44]"
  target_or_system: "CK1ϵ (Homo sapiens (Human))"
  inhibition at 1 µM / %: 42
- compound: "C[S+]([O-])c1ccc(-c2nc(-c3ccc(F)cc3)c(-c3ccncc3)o2)cc1 (centres unmarked) [OZ-06]"
  target_or_system: "CK1ϵ (Homo sapiens (Human))"
  inhibition at 1 µM / %: 54
- compound: "Cc1cccc(-c2nc(C(O)C3=CCCCC3)[nH]c2-c2ccncc2)c1 (racemic) [IM-43]"
  target_or_system: "CK1ϵ (Homo sapiens (Human))"
  inhibition at 1 µM / %: 22
- compound: "Cc1cccc(-c2nc(-c3ccc(S(C)(=O)=O)cc3)[nH]c2-c2ccncc2)c1 [IM-33]"
  target_or_system: "CK1ϵ (Homo sapiens (Human))"
  inhibition at 1 µM / %: 36
- compound: "Cc1cccc(-c2nc(CN(C)C)[nH]c2-c2ccncc2)c1 [IM-42]"
  target_or_system: "CK1ϵ (Homo sapiens (Human))"
  inhibition at 1 µM / %: 29
